system: NOMO1; assay: cell viability relative to DMSO control; higher = less cytotoxic; settings: HPLM + 10% dialyzed FBS; 48 h; 0.19 µM
The entries below come with measured cell viability values attached.

# compound, cell viability (%)
measured = [
    ("CN1CCN(CCCN2c3ccccc3Sc3ccc(Cl)cc32)CC1.O=C(O)/C=C\\C(=O)O.O=C(O)/C=C\\C(=O)O", 110),
    ("C1COC(NC(C2CC2)C2CC2)=N1", 83.5),
    ("Cc1ccc(/C=N/NC(=O)c2ccccc2Oc2ccccc2)o1", 102),
    ("C[N+]1(C)[C@@H]2CC(OC(=O)C(O)(c3cccs3)c3cccs3)C[C@H]1[C@@H]1O[C@@H]12 (stereo not given in full)", 120),
    ("C[C@@H](N)C1CC[C@@H](CC1)C(=O)NC2=CC=NC=C2 (stereo not given in full)", 136),
]

====

test system: P12-Ichikawa; assay: cell viability relative to DMSO control; higher = less cytotoxic; details: RPMI 5 mM glucose + 10% FBS; 48 h; 0.00234 µM
Catalogue of compounds with associated cell viability
result type: cell viability (%)

# compound, result number
measured = [
    ("COC(=O)C/1=C(C)/N/C(=C(\\C1C2=CC(=CC=C2)[N+]([O-])=O)C(=O)OCCCN3CCC(CC3)(C4=CC=CC=C4)C5=CC=CC=C5)C (configuration not stated)", 103),
    ("CS[C@H]1SC[C@@H]2C(=O)N(C)[C@H](C(C)C)C(=O)OC[C@H](NC(=O)c3cnc4ccccc4n3)C(=O)N[C@H](C)C(=O)N(C)[C@H]1C(=O)N(C)[C@H](C(C)C)C(=O)OC[C@H](NC(=O)c1cnc3ccccc3n1)C(=O)N[C@H](C)C(=O)N2C", 98.9),
    ("CCC(C1CCC(C)C(O1)C(C)C(O)C(C)C(=O)C(CC)C2OC\\3(O[C@]4(CC[C@@](C)(O4)C5CC[C@@](O)(CC)C(C)O5)C(O)\\C=C3)C(C)CC2C)C([O-])=O (some centres not stated)", 111),
    ("N#C/C(=C1/Nc2ccccc2S1)c1ccnc(OCc2ccc(CN3CCOCC3)cc2)n1", 105),
    ("CC[C@H]1CN2CCc3cc(OC)c(OC)cc3[C@@H]2C[C@@H]1C[C@H]1NCCc2cc(OC)c(OC)cc21", 107),
    ("NC(CO)C(=O)NNCc1ccc(O)c(O)c1O (configuration not stated)", 100),
    ("CC(C)Cn1cnc2c(N)nc3ccccc3c21", 123),
]

====

Recorded cell viability, one value per entry.
test system: NOMO1; experiment: cell viability relative to DMSO control; higher = less cytotoxic; settings: RPMI 5 mM glucose + 10% FBS; 48 h; 0.00234 µM
result type: cell viability (%)

# molecule, quantity unit, result number
measured = [
    ("N#Cc1ccnc(N2C(=O)CC[C@H]2C(=O)N(c2cncc(F)c2)[C@H](C(=O)NC2CC(F)(F)C2)c2ccccc2Cl)c1", "%", 95.6),
    ("CN(C)CCc1c[nH]c2ccc(C[S+](=O)([O-])N3CCCC3)cc12", "%", 107),
    ("CC(C)[N+]1(C)C2CCC1CC(OC(=O)C(CO)c1ccccc1)C2.O.[Br-] (stereo not given)", "%", 105),
    ("NC[C@H]1O[C@H](O[C@H]2[C@H](O)[C@@H](O[C@H]3O[C@H](CO)[C@@H](O)[C@H](N)[C@H]3O)[C@H](N)C[C@@H]2N)[C@H](N)C[C@@H]1O", "%", 103),
    ("CC(C)c1c(C(=O)Nc2ccccc2)c(-c2ccccc2)c(-c2ccc(F)cc2)n1CC[C@@H](O)C[C@@H](O)CC(=O)[O-]", "%", 91.3),
]

====

test system: SEM cells; assay: cell viability relative to DMSO control; higher = less cytotoxic; settings: HPLM + 10% dialyzed FBS; 48 h; 1.71 µM
Examples of compounds with documented cell viability follow.
result type: cell viability (%)

# compound, quantity unit, result number
rows = [
    ("COc1cc2ncn(-c3cc(OCc4ccccc4C(F)(F)F)c(C(N)=O)s3)c2cc1OC", "%", 65.3),
    ("C[N+]1(C)[C@@H]2CC(OC(=O)C(O)(c3cccs3)c3cccs3)C[C@H]1[C@@H]1O[C@@H]12 (some centres undefined)", "%", 114),
    ("CCCCCCCCCCCC/1=C(O)/C(=O)/C=C(O)\\C1=O", "%", 144),
    ("Cc1cnc(Nc2ccc(N3CCN(C)CC3)cc2)nc1Nc1cccc([S+](=O)([O-])NC(C)(C)C)c1", "%", 27.2),
    ("C[C@H]1Oc2cc(cnc2N)-c2c(nn(C)c2C#N)CN(C)C(=O)c2ccc(F)cc21", "%", 121),
    ("COc1cc2ncnc(Nc3cccc(Cl)c3)c2cc1OC", "%", 30.7),
    ("Nc1ccc([S+](=O)([O-])Nc2ncccn2)cc1", "%", 110),
    ("CCCCCN(CCC12CC3CC(CC(C3)C1)C2)C(=O)NCCCc1ccncc1", "%", 106),
    ("CCC(C1CCC(C)C(O1)C(C)C(O)C(C)C(=O)C(CC)C2OC\\3(O[C@]4(CC[C@@](C)(O4)C5CC[C@@](O)(CC)C(C)O5)C(O)\\C=C3)C(C)CC2C)C([O-])=O (some centres undefined)", "%", 77.4),
    ("C[C@@H](N)C1CC[C@@H](CC1)C(=O)NC2=CC=NC=C2 (some centres undefined)", "%", 129),
    ("Oc1ccc([C@@H]2Oc3ccc(O)cc3[C@@H]3CCC[C@@H]32)cc1", "%", 81.9),
    ("CN1CCC(CC1)=C2C3=C(C=CC=C3)\\C=C/C4=C2C=CC=C4", "%", 112),
    ("O=C(NCc1ccccc1)c1csc(Nc2ccncn2)n1", "%", 50.4),
    ("COc1ccc([S+](=O)([O-])Nc2cccnc2Nc2ccc(O)cc2)cc1", "%", 96.1),
    ("COC1=CC=C2[N](CCCN(C)C)C=C(C2=C1)C/3=C(/C(=O)NC3=O)C4=C[NH]C5=C4C=CC=C5", "%", 111),
    ("Cc1c(C(=O)c2cccc3ccccc23)c2cccc3c2n1[C@H](CN1CCOCC1)CO3", "%", 86.7),
    ("Clc1ccccc1C(c1ccccc1)(c1ccccc1)n1ccnc1", "%", 55.8),
    ("CC(C)(C)C1=CC(=C(NC(=O)C/2=C/NC3=C(C=CC=C3)C2=O)C=C1O)C(C)(C)C", "%", 124),
    ("CCOCC(O)COc1ccc(NC(=O)CC[S+](C)C)cc1 (centres undefined)", "%", 91.9),
    ("NCCc1ccc(O)c(O)c1", "%", 110),
    ("O=C(NCC1CCOCC1)c1cnc(Nc2ccc(Cl)cc2Cl)nc1C(F)(F)F", "%", 102),
    ("Cc1ccc(-c2cc(C(F)(F)F)nn2-c2ccc([S+](N)(=O)[O-])cc2)cc1", "%", 122),
    ("N#C/C(=C1/Nc2ccccc2S1)c1ccnc(OCc2ccc(CN3CCOCC3)cc2)n1", "%", 100),
    ("COc1cc(Cl)cn2c(-c3cccc(NC4CNC4)n3)cnc12", "%", 90.8),
]

====

system: P12-Ichikawa; assay: cell viability relative to DMSO control; higher = less cytotoxic; details: HPLM + 10% dialyzed FBS; 48 h; 0.00234 µM
Recorded cell viability by entry

# compound, system name, cell viability [%]
rows = [
    ("O=C(NCC1CCOCC1)c1cnc(Nc2ccc(Cl)cc2Cl)nc1C(F)(F)F", "P12-Ichikawa", 111),
    ("CCOC(=O)[C@H]1O[C@@H]1C(=O)N[C@@H](CC(C)C)C(=O)NCCC(C)C", "P12-Ichikawa", 114),
    ("CN(C)CCOc1ccc(/C(=C(/CCCl)c2ccccc2)c2ccccc2)cc1", "P12-Ichikawa", 110),
    ("CCC(C1CCC(C)C(O1)C(C)C(O)C(C)C(=O)C(CC)C2OC\\3(O[C@]4(CC[C@@](C)(O4)C5CC[C@@](O)(CC)C(C)O5)C(O)\\C=C3)C(C)CC2C)C([O-])=O (stereo partly specified)", "P12-Ichikawa", 112),
    ("CC(C)[N+]1(C)C2CCC1CC(OC(=O)C(CO)c1ccccc1)C2.O.[Br-] (stereo unspecified)", "P12-Ichikawa", 111),
    ("CCOCC(O)COc1ccc(NC(=O)CC[S+](C)C)cc1 (stereo unspecified)", "P12-Ichikawa", 82.5),
    ("Nc1nc(N)c(N=O)c(OCC2CCCCC2)n1", "P12-Ichikawa", 90.3),
    ("OC[C@H]1OC(OC2=CC3=C(C(=C2)O)C(=O)\\C(=C/O3)C4=CC=C(O)C=C4)[C@H](O)[C@@H](O)[C@@H]1O (stereo partly specified)", "P12-Ichikawa", 90.5),
    ("C[C@H]1Oc2cc(cnc2N)-c2c(nn(C)c2C#N)CN(C)C(=O)c2ccc(F)cc21", "P12-Ichikawa", 120),
    ("CN1CCN(CCCN2c3ccccc3Sc3ccc(Cl)cc32)CC1.O=C(O)/C=C\\C(=O)O.O=C(O)/C=C\\C(=O)O", "P12-Ichikawa", 108),
    ("CC(S)C(=O)NCC(=O)O (stereo unspecified)", "P12-Ichikawa", 110),
    ("CN(C)[C@@H](CCOc1cccc2ccccc12)c1ccccc1", "P12-Ichikawa", 111),
    ("NC[C@H]1O[C@H](O[C@H]2[C@H](O)[C@@H](O[C@H]3O[C@H](CO)[C@@H](O)[C@H](N)[C@H]3O)[C@H](N)C[C@@H]2N)[C@H](N)C[C@@H]1O", "P12-Ichikawa", 98.8),
    ("N=C(N)Nc1ccc(C(=O)Oc2ccc3cc(C(=N)N)ccc3c2)cc1", "P12-Ichikawa", 104),
    ("NNc1nncc2ccccc12", "P12-Ichikawa", 121),
    ("CS[C@H]1SC[C@@H]2C(=O)N(C)[C@H](C(C)C)C(=O)OC[C@H](NC(=O)c3cnc4ccccc4n3)C(=O)N[C@H](C)C(=O)N(C)[C@H]1C(=O)N(C)[C@H](C(C)C)C(=O)OC[C@H](NC(=O)c1cnc3ccccc3n1)C(=O)N[C@H](C)C(=O)N2C", "P12-Ichikawa", 97.9),
    ("CC(C)(O)C(=O)Nc1ccc([N+](=O)[O-])c(C(F)(F)F)c1", "P12-Ichikawa", 109),
    ("C[C@H](NCc1ccc(OCc2cccc(F)c2)cc1)C(N)=O", "P12-Ichikawa", 110),
    ("CC(C)Cn1cnc2c(N)nc3ccccc3c21", "P12-Ichikawa", 113),
    ("N#Cc1ccc(NC(=O)Nc2ccccc2Br)c2nn[nH]c12", "P12-Ichikawa", 109),
    ("C=CC(=O)Nc1ccc2ncnc(Nc3ccc(OCc4cccc(F)c4)c(Cl)c3)c2c1", "P12-Ichikawa", 111),
    ("Cc1ccc(/C=N/NC(=O)c2ccccc2Oc2ccccc2)o1", "P12-Ichikawa", 107),
    ("CC[C@@H]1C(=O)N(C)c2cnc(Nc3ccc(C(=O)NC4CCN(C)CC4)cc3OC)nc2N1C1CCCC1", "P12-Ichikawa", 123),
    ("COc1cc2ncnc(Nc3cccc(Cl)c3)c2cc1OC", "P12-Ichikawa", 107),
    ("C[N]1C=C(C=N1)C2=CC=C3N=CC\\4=C(N(C(=O)\\C=C4)C5=CC6=C(CCN6C(=O)C=C)C=C5)C3=C2", "P12-Ichikawa", 121),
    ("N[C@@H](Cc1ccc(O)c(O)c1)C(=O)O", "P12-Ichikawa", 124),
    ("CC(C)n1cnc2c(NCCc3ccc(O)cc3)nc(-c3csc4ccccc34)nc21", "P12-Ichikawa", 111),
    ("C[C@@H](N)C1CC[C@@H](CC1)C(=O)NC2=CC=NC=C2 (stereo partly specified)", "P12-Ichikawa", 112),
    ("CCc1cc(-c2n[nH]c(C)c2-c2ccc3c(c2)OCCO3)c(O)cc1O", "P12-Ichikawa", 133),
    ("N#CC[C@H](C1CCCC1)n1cc(-c2ncnc3[nH]ccc23)cn1", "P12-Ichikawa", 95.2),
    ("Cc1cccc(-c2[nH]c(C(C)(C)C)nc2-c2ccc3c(c2)OCO3)n1", "P12-Ichikawa", 109),
]
